Every entry's value here was drawn from patent US20250011363A1.

# assayed.target: acetylcholine receptor
# assay.notes: SPR, AchR on CM5 chip, peptide 10 µM
Collected Binding affinity (RU) values appear next to each entry.
Write the number in RU without appending the unit.

Some binders with recorded Binding affinity (RU):
{"binder": "KKEEKR [6mer-1-1166]", "units.label": "RU", "Binding affinity (RU)": 22}
{"binder": "KKCMKR [6mer-1-1190]", "units.label": "RU", "Binding affinity (RU)": 29}
{"binder": "KKCHWR [6mer-1-1189]", "units.label": "RU", "Binding affinity (RU)": 40}
{"binder": "KRKWWR [6mer-1-1150]", "units.label": "RU", "Binding affinity (RU)": 34}
{"binder": "KKCDHR [6mer-1-1162]", "units.label": "RU", "Binding affinity (RU)": 41}
{"binder": "RKAPHR [6mer-1-1147]", "units.label": "RU", "Binding affinity (RU)": 35}
{"binder": "RKKEKR [6mer-1-1155]", "units.label": "RU", "Binding affinity (RU)": 28}

Q) Retrieve Binding affinity (RU) measured for RRAWPR [6mer-1-1159] and print it.
A) 39
